Measured pest or weed control at 500 g/ha of individual entries
Test system: Avena fatua (AVEFA)
testDescription: Post-emergence activity, glasshouse pot test (100=total damage to plant; 0=no damage to plant)
Type: in vivo
testContext: 336 h, rate 500 g/ha, evaluated 14 or 15 days after spraying
Note: unit % is implicit; provide only the numeric part.

INSERT INTO results (molecule, valuekind, testvalue) VALUES
  ('CCc1cc(C)cc(C)c1C1=C(O)CC(C2CCOCC2)CC1=O (stereo not drawn) [Compound T12]', 'pest or weed control at 500 g/ha', 90);

QUERY: Record Cc1cc(C)c(C2=C(O)CC(C3CCOCC3)CC2=O)c(C)c1 (stereo not drawn) [Compound T3] : what is its pest or weed control at 500 g/ha with Avena fatua (AVEFA)?
RESULT: 90

QUERY: Record CCc1cc(C)cc(CC)c1C1=C(O)CC(C2CCCS(=O)(=O)C2)CC1=O (stereo not drawn) [Compound T19] : what is its pest or weed control at 500 g/ha with Avena fatua (AVEFA)?
RESULT: 90

Sourced from patent US8536351B2
